system: U2OS; test: Incucyte cell viability with U2OS; assay type: toxicity, cell-based; conditions: human, 24 h, 10 µM, compound concentration 10 uM, replicate number 2, timepoint 24 hours; note: filed as whole numbers so only -1 and 0 and 1 occur
metric-name: Growth Rate

Check out these entries, answers already filled in.
- smiles-notation: "O=C(NC[C@H](O)CN1CCc2ccccc2C1)c1ccnc(NC2CCC2)c1"
  Growth Rate: 1
- smiles-notation: "CCC(=O)N[C@H]1CC[C@@H](C(=O)N(C)c2ccc(-c3nc4ccccc4o3)cc2)C1"
  Growth Rate: 0
- smiles-notation: "CCCc1cc(C)[nH]c(=O)c1CNC(=O)c1cc(-c2ccnc(N3CCN(C)CC3)c2)cc2c1cnn2C(C)C"
  Growth Rate: 1
- smiles-notation: "C[C@@H]1CCc2ncc(F)cc2[C@H]2CCCN2c2ccn3ncc(c3n2)C(=O)N1"
  Growth Rate: 0
- smiles-notation: "CN1C(=O)[C@@H](N2CCc3c(nn(Cc4ccccc4)c3Br)C2=O)COc2ccccc21"
  Growth Rate: 1

Here is another compound to look at.
Growth Rate lookup needed for CCN(CC)CCCCC1CCN(CC(=O)N2c3ccccc3C(=O)Nc3cccnc32)CC1 , thanks. 0

Hey, just so you know, these numbers are from ChEMBL document CHEMBL4689842.
